# assay.summary: chemical genetic growth profiling, strain panel (AID 1159580);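 further: tested at 20 µM; growth read once vehicle control cultures reached saturation at 30 °C; 1 = growth at the plate median or of vehicle wells; lower values mean less growth of the strain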
# measurement.conditions: S. cerevisiae deletion strains, growth OD, locus YNL128W, strain TEP1, active compounds read low
In all, about 5,500 compounds went through this assay and about 2,000 (36%) were called active. Another 18% or so got no clear call; they are omitted. The list shows a part of the results.
Here the recorded normalized growth is given for each entry.
Write the number on its own, no unit after it.

// solved cases for normalized growth follow
CN1CCN(C2=Nc3cc(Cl)ccc3Nc3ccccc32)CC1 | 0.991
Cc1onc(-c2c(Cl)cccc2Cl)c1C(=O)N1CCN(c2ncnc3scc(-c4ccccc4)c23)CC1 | 1.01
CC(C)(C)c1ccc(S(=O)(=O)/C=C/C#N)cc1 | 0.0795
CC(=O)CCCCn1c(=O)c2c(ncn2C)n(C)c1=O | 0.998

For the next question, use this compound.
Task item: # lookup: normalized growth of Cc1cc(NS(=O)(=O)c2ccc(NC(=O)c3ccccc3)cc2)no1
Reply: 1

* * *

# assay.summary: chemical genetic growth profiling, strain panel (AID 1159580);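 further: tested at 20 µM; growth read once vehicle control cultures reached saturation at 30 °C; 1 = growth at the plate median or of vehicle wells; lower values mean less growth of the strain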
# measurement.conditions: S. cerevisiae deletion strains, growth OD, locus YBL061C, strain skt5
Hit rate of the full screen: of about 5,500 compounds, about 2,000 (36%) were called active. About 18% were inconclusive and are not listed. Cut-off read from the data, not from the text of the source: active = normalized growth mostly below about 0.91 (no sharp cut-off); inconclusive = no clear call, values can overlap the other calls; inactive = mostly above about 0.92. Some of the results follow.
API: response.call in active, inactive

Please review the entries below; each comes with its answer.
COc1cc([C@@H]2c3cc4c(cc3[C@H](O)[C@H]3COC(=O)[C@H]23)OCO4)cc(OC)c1OC | inactive
ClC1C(Cl)C(Cl)C(Cl)C(Cl)C1Cl (stereo not given) | inactive
CNC(C)[C@@H]1CC[C@@H](N)[C@@H](OC2[C@@H](N)C[C@@H](N)[C@H](OC3OC[C@](C)(O)[C@H](NC)[C@H]3O)[C@H]2O)O1 (stereo not given in full) | inactive
O=C(O)c1cccnc1C(=O)O | inactive
CC(C)c1cc2c(c(O)c1O)[C@@]1(C(=O)O)CCCC(C)(C)C1CC2 (stereo not given in full) | inactive

Now let's try a different one.
Task item: Fill in: this test's call for CCCc1ncc(C[n+]2ccccc2C)c(N)n1 is ___
Reply: inactive

* * *

# assay.summary: chemical genetic growth profiling, strain panel (AID 1159580);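 further: tested at 20 µM; growth read once vehicle control cultures reached saturation at 30 °C; 1 = growth at the plate median or of vehicle wells; lower values mean less growth of the strain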
# measurement.conditions: S. cerevisiae deletion strains, growth OD, locus YLR113W, strain HOG1, active compounds read low
Out of some 5,500 compounds screened, about 2,000 (36%) were called active. Another 18% or so got no clear call; they are omitted. The list shows a part of the results.
hey, just use met if measured normalized growth is less than 1, otherwise not met

// known answers, use as guide
S=C(NCc1cccs1)Nc1cc(Cl)cc(Cl)c1 | met
Cc1ccc2nc3c(nc2c1)-c1ccccc1C3=O | met
Cc1csc2c(N3CCN(C(=S)Nc4ccc(C(F)(F)F)cc4)CC3)ncnc12 | met
CC1SC(c2cccnc2)N(c2ccc(Cl)cc2)C1=O (stereo not given) | met

Task item: Is 1 strictly greater than the molecule's reported normalized growth? molecule: CN1C(=O)CC[C@H]1c1cccnc1
Reply: not met

Task item: Same read-out for C[C@]12[C@H](O)CC3C(CC[C@@H]4C[C@@H](O)CC[C@]34C)[C@@]1(O)CC[C@@H]2C1=CC(=O)OC1 (stereo not given in full) ?
Reply: not met

* * *

The reader will find reported normalized growth values listed item by item below.
# assay.summary: chemical genetic growth profiling, strain panel (AID 1159580);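 further: tested at 20 µM; growth read once vehicle control cultures reached saturation at 30 °C; 1 = growth at the plate median or of vehicle wells; lower values mean less growth of the strain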
# measurement.conditions: S. cerevisiae deletion strains, growth OD, locus YOR001W, strain rrp6, active compounds read low
Out of some 5,500 compounds screened, about 2,000 (36%) were called active. Roughly 18% stayed inconclusive and do not appear here. This is one part of the list.
Would you mind answering with just the numeric figure?

See these solved cases before continuing.
CC(=O)OC1CCC23CC1(C)CCC2C(C)(C)CC3OC(C)=O (stereo unspecified) | 1.04
NC(=NCCCCCCN=C(N)N=C(N)Nc1ccc(Cl)cc1)N=C(N)Nc1ccc(Cl)cc1 | 0.0681
NNCc1ccccc1 | 0.994
CC(=O)O[C@@H]1C2CC[C@@H]3C1(C[C@@H](O)[C@@]1(O)[C@@H](C[C@H](O)C1(C)C)[C@]3(C)O)C[C@@]2(C)O (stereo partly specified) | 0.987
NC(Cc1ccc(Cl)cc1)C(=O)O (stereo unspecified) | 1

Now consider the entry below.
Task item: Bench note: what normalized growth did NS(=O)(=O)c1cc2c(cc1Cl)NCNS2(=O)=O show?
Reply: 1.04
